Reference source for all entries: ChEMBL document CHEMBL3804811

Each entry below carries its reported pIC50.
tested-system: Insulin receptor (Homo sapiens, UniProt P06213)
Sequence (P06213 28-758 limits assumed): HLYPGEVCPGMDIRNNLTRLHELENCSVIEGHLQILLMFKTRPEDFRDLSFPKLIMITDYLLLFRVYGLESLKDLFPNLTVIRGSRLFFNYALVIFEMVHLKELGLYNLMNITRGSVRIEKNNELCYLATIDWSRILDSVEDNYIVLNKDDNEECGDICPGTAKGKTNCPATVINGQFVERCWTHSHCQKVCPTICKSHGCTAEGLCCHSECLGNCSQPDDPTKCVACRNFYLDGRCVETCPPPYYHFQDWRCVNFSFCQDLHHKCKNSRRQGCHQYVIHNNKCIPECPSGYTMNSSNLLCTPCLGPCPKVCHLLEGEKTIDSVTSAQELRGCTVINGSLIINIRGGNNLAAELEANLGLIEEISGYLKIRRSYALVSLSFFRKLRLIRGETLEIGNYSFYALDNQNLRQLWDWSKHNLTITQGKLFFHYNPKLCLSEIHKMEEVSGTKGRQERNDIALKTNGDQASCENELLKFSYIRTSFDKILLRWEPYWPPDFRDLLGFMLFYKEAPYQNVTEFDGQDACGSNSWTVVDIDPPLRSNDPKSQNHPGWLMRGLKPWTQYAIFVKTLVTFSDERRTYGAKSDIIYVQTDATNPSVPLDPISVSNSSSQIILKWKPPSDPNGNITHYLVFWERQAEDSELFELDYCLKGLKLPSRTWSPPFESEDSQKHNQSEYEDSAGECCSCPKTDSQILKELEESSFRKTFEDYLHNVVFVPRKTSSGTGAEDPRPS
Sequence (P06213 763-1382 limits assumed): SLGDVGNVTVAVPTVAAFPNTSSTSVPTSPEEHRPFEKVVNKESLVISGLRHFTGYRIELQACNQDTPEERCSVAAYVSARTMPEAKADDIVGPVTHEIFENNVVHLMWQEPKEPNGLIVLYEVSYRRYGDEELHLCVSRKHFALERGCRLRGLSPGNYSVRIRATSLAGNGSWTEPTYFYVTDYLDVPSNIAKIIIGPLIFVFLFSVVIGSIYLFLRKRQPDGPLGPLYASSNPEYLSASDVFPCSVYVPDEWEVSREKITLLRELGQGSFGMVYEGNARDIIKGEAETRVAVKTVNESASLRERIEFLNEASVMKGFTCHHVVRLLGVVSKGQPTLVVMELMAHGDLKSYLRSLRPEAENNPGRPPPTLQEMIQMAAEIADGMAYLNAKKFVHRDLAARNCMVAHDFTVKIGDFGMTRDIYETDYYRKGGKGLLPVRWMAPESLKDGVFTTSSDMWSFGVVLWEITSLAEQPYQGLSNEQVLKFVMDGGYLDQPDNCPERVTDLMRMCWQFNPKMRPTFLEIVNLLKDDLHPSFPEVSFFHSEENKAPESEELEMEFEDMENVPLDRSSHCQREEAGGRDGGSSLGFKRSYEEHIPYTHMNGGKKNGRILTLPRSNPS
pIC50: −log10 of the molar value.
test-readout: pIC50

- CN1CCN(c2ccc(C(=O)Nc3n[nH]c4ccc(Cc5ccccc5)cc34)c(NC3CCOCC3)c2)CC1: 5.83
- COC[C@@H](C)Nc1cc(N2CCN(C)CC2)ccc1C(=O)Nc1n[nH]c2ccc(Cc3cc(F)cc(F)c3)cc12: 5.97
- CN1CCN(c2ccc(C(=O)Nc3n[nH]c4ccc(Cc5cc(F)cc(F)c5)cc34)c(NCC3CN(C)C3)c2)CC1: 6.45
- CN1CCN(c2ccc(C(=O)Nc3n[nH]c4ccc(Cc5cc(F)cc(F)c5)cc34)c(N[C@H]3CC[C@@H](O)CC3)c2)CC1: 6.15
- O=C(Nc1n[nH]c2ccc(Cc3cc(F)cc(F)c3)cc12)c1ccc(N2CCNCC2)cc1NC1CCOCC1: 7.39
- CN1CCC(Nc2cc(N3CCN(C)CC3)ccc2C(=O)Nc2n[nH]c3ccc(Cc4cc(F)cc(F)c4)cc23)CC1: 6.48
- COCCNc1cc(N2CCN(C)CC2)ccc1C(=O)Nc1n[nH]c2ccc(Cc3cc(F)cc(F)c3)cc12: 5.75
- CN1CCN(c2ccc(C(=O)Nc3n[nH]c4ccc(Cc5cc(F)cc(F)c5)cc34)c(NCCO)c2)CC1: 6.04
- CN1CCN(c2ccc(C(=O)Nc3n[nH]c4ccc(Cc5cc(F)cc(F)c5)cc34)c(NCc3ccccc3)c2)CC1: 5.43
- C[C@@H](c1cc(F)cc(F)c1)c1ccc2[nH]nc(NC(=O)c3ccc(N4CCN(C)CC4)cc3NC3CCOCC3)c2c1: 6.72
- CN1CCN(c2ccc(C(=O)Nc3n[nH]c4ccc(Cc5cc(F)cc(F)c5)cc34)c(Nc3ccccc3)c2)CC1: 5.01
- CN1CCN(c2ccc(C(=O)Nc3n[nH]c4ccc(Cc5cc(F)ccc5F)cc34)c(NC3CCOCC3)c2)CC1: 6.77

----------
method: Cmax in Harlan nu/nu mouse at 10 mg/kg, po administered as single dose by LC-MS/MS analysis
Type: ADME, organism-based
Set-up: dose 10 mg/kg, route oral
assay-context: in vivo
test-readout: Cmax (nM)

• CN1CCN(c2ccc(C(=O)Nc3n[nH]c4ccc(Cc5cc(F)cc(F)c5)cc34)c(N[C@H]3CC[C@H](O)CC3)c2)CC1 = 360
• O=C(Nc1n[nH]c2ccc(Cc3cc(F)cc(F)c3)cc12)c1ccc(CN2CCCCC2)cc1NC1CCOCC1 = 360
• CN1CCN(c2ccc(C(=O)Nc3n[nH]c4ccc(Cc5cc(F)cc(F)c5)cc34)c(NCCF)c2)CC1 = 1880
• CN1CCN(c2ccc(C(=O)Nc3n[nH]c4ccc(Cc5cc(F)cc(F)c5)cc34)c(NC3CCOCC3)c2)CC1 = 1330
• CN1CCC(Oc2ccc(C(=O)Nc3n[nH]c4ccc(Cc5cc(F)cc(F)c5)cc34)c(NC3CCOCC3)c2)CC1 = 800
• O=C(Nc1n[nH]c2ccc(Cc3cc(F)cc(F)c3)cc12)c1ccc(N2CCNCC2)cc1NC1CCOCC1 = 81

----------
method: Cmax in Sprague-Dawley rat at 10 mg/kg, iv administered as single dose by LC-MS/MS analysis
Assay type: ADME, organism-based
Design: dose 10 mg/kg, route intravenous
assay-context: in vivo
test-readout: Cmax (µM)

* CN1CCN(c2ccc(C(=O)Nc3n[nH]c4ccc(Cc5cc(F)cc(F)c5)cc34)c(NC3CCOCC3)c2)CC1 | 11
